# Tested on: Escherichia coli TOP10;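 note: peptides expressed intracellularly from a pBAD plasmid library in pooled LB shake-flask culture, induced with 0.3% L-arabinose, DNA abundance read by NGS, three biological replicates, DESeq2 with apeglm shrinkage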
# test protocol: shrunken log2 fold change of peptide-encoding DNA abundance (4.5 h post-induction vs induction); higher = less antimicrobial activity (less host growth inhibition)
# condition context: time post-induction: 4.5 h; library: site-saturation at positions 5, 18, 19, 20

# biopolymer sequence, assayed system, shrunken log2 fold change
measured = [
    ("RRIRHRPPRLPRPRPRPTCHPRP", "Escherichia coli TOP10", -0.647),
    ("RRIRERPPRLPRPRPRPFTKPRP", "Escherichia coli TOP10", -0.0421),
    ("RRIRCRPPRLPRPRPRPHRHPRP", "Escherichia coli TOP10", -0.275),
    ("RRIRPRPPRLPRPRPRPWTPPRP", "Escherichia coli TOP10", 0.0256),
    ("RRIRKRPPRLPRPRPRPNNLPRP", "Escherichia coli TOP10", -0.218),
]
